Target: T1, ANK domain of Notch1 intracellular segment N1ICD (UniProt P46531 1872-2126)
T1 chain: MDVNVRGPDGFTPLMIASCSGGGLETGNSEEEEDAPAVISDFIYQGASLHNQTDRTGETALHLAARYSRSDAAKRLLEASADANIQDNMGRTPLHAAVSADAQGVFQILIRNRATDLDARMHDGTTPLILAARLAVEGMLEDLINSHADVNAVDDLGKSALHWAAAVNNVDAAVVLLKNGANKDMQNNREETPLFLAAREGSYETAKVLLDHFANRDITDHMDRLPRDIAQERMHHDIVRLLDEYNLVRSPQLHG
Assay: SPR
Bridges are numbered along the chain shown (N, C = ends). Where no end group is shown, it is not given here. [ ]: non-standard residue; d: D form. S5 = C=CCCC[C@](C)(N)C(=O)O
Heads up, the class ranges for Kd are I = under 70 nM, II = from 70 nM up to 100 nM, III = 100 nM and over

• YAARIFYQLLSKQL [mAH2-3] = I
• YAKRIAYQLLSKQL [mAH2-6] = I
• YAKRIFYQALSKQL [mAH2-9] = III
• YAKRIFYQLLSKQA [mAH2-14] = III
• YAKRIFYQLLSAQL [mAH2-12] = II

INPUT: Categorize the following entry: YAKRIFYQLLAKQL [mAH2-11]
OUTPUT: II

INPUT: Given [S5]AKRIFY[S5]LLSKQL (staple 1-8) [SAH-mAH2-4] , name the class its Kd places it in.
OUTPUT: I

INPUT: GET /class?item= YAKAIFYQLLSKQL [mAH2-4]
OUTPUT: II

INPUT: Category of AAKRIFYQLLSKQL [mAH2-1] :
OUTPUT: II

INPUT: Exercise: read the entry YAKRIFYALLSKQL [mAH2-8] and state which class it falls under.
OUTPUT: II
